Cited source for all entries: patent US10526316B2

Where a name gives a salt, the structure may show the parent alone.
Consider the following compounds and their measured melting point readings.
Please give a number only; it is taken to be in °C.

Below: 8 compounds and their reported melting point.
COc1cccc(NC(C)c2cc(C(=O)N3CCOCC3)cc3ncc(N4CCOCC4)nc23)c1 (centres unmarked) : 80
CC(Nc1cc(F)cc(F)c1)c1cc(C(=O)N(C)CCN(C)C)cc2ncc(N3CCOCC3)nc12 (single isomer, unassigned) [Compound 181] : 134
Cc1cccc(NC(C)c2cc(C(=O)N3CCOCC3)cc3ncc(N4CCOCC4)nc23)c1 (centres unmarked) : 80
CC(Nc1cc(F)cc(F)c1)c1cc(CN2C[C@@H](C)O[C@@H](C)C2)cc2ncc(N3CCOCC3)nc12 (single isomer, unassigned) : 80
CNCCNC(=O)c1cc(C(C)Nc2cc(F)cc(Cl)c2)c2nc(N3CCOCC3)cnc2c1 (centres unmarked) : 80
CC(Nc1ccc(F)c(F)c1)c1cc(C(=O)NC[C@H]2CCCN2)cc2ncc(N3CCOCC3)nc12 (some centres unmarked) : 130
CC(Nc1cc(F)c(F)c(F)c1)c1cc(C(=O)O)cc2ncc(N3CCOCC3)nc12 (centres unmarked) : 285
CC(Nc1ccc(F)c(F)c1)c1cc(C(=O)NC2CCNC2)cc2ncc(N3CCOCC3)nc12 (centres unmarked) [Compound 325a] : 144

Task: Which melting point reading was recorded for the compound CC(Nc1cc(F)cc(F)c1)c1cc(CN2CCO[C@@H](CO)C2)cc2ncc(N3CCOCC3)nc12 (single isomer, unassigned) (as salt: HCl) ?
Result: 80

Task: // query: CC(Oc1cc(F)cc(F)c1)c1cc(C(=O)N2CCOCC2)cc2ncc(N3CCO[C@H](C)C3)nc12 (mixture of isomers)
Result: 55

Task: Now give it for COc1cc(F)cc(N2CCCC2c2cc(C(=O)N(C)C)cc3ncc(N4CCOCC4)nc23)c1 (centres unmarked) too.
Result: 80

Task: Also Fc1cc(F)cc(N2CCCC2c2cncc3ncc(N4CCOCC4)nc23)c1 (single isomer, unassigned) [Compound 24] ?
Result: 100

Task: Please do the same for Cc1cc(C2CCCN2c2cc(F)cc(F)c2)c2nc(N3CCOCC3)cnc2c1 (single isomer, unassigned) [Compound 106] as well.
Result: 80

Task: Try this compound too: CN(C)C(=O)c1cc(NCc2cc(F)cc(F)c2)c2nc(N3CCOCC3)cnc2c1
Result: 158
